- TARGET OF ASSAY: CD3ε homodimer protein (human, UniProt P07766 23-126, limits assumed)
- Sequence (P07766 23-126 limits assumed): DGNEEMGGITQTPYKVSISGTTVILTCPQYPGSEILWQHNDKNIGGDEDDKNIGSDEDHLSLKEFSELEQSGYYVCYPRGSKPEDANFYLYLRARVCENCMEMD
- ASSAY INFO: SPR, immobilized CD3ε homodimer;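 further: biacore T200 surface plasmon resonance at 25 °C, antibody variants flowed as analytes over amine-coupled CD3ε homodimer on a CM4 chip, variant binding amount divided by that of GLS3000 antibody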
Listed here: items and their measured ratio of amounts bound (vs GLS3000).
Lab note: record the figure alone, no unit after it.

Known ratio of amounts bound (vs GLS3000) results, listed for orientation:
GLS3000 R29L (antibody, name in Kabat numbering, V domains shown, one-arm format as m2) VH: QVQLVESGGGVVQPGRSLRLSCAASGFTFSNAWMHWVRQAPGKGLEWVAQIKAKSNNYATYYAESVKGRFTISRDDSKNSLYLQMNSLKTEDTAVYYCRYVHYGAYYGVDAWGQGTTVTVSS VL: DIVMTQSPLSLPVTPGEPASISCRSSQSLVHSNLNTYLHWYQQKPGQAPRLLIYKVSNRFSGVPDRFSGSGSGTDFTLKISRVEAEDVGVYYCGQGTQVPYTFGQGTKLEIK: 0.56
GLS3000 F55I (antibody, name in Kabat numbering, V domains shown, one-arm format as m2) VH: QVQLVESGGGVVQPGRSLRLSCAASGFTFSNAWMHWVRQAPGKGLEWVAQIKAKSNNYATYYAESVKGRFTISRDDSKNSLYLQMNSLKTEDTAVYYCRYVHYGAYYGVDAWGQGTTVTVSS VL: DIVMTQSPLSLPVTPGEPASISCRSSQSLVHSNRNTYLHWYQQKPGQAPRLLIYKVSNRISGVPDRFSGSGSGTDFTLKISRVEAEDVGVYYCGQGTQVPYTFGQGTKLEIK: 0.82

# input for lookup
Ask: What measured ratio of amounts bound (vs GLS3000) goes with GLS3000 L27bY (antibody, name in Kabat numbering, V domains shown, one-arm format as m2) VH: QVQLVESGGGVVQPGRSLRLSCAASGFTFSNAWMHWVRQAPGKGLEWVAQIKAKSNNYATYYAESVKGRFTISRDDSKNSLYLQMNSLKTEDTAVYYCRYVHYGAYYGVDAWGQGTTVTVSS VL: DIVMTQSPLSLPVTPGEPASISCRSSQSYVHSNRNTYLHWYQQKPGQAPRLLIYKVSNRFSGVPDRFSGSGSGTDFTLKISRVEAEDVGVYYCGQGTQVPYTFGQGTKLEIK ?
Reply: 0.25
